Biological target: human RXFP1 (Homo sapiens, UniProt Q9HBX9)
Sequence (Q9HBX9 1-757): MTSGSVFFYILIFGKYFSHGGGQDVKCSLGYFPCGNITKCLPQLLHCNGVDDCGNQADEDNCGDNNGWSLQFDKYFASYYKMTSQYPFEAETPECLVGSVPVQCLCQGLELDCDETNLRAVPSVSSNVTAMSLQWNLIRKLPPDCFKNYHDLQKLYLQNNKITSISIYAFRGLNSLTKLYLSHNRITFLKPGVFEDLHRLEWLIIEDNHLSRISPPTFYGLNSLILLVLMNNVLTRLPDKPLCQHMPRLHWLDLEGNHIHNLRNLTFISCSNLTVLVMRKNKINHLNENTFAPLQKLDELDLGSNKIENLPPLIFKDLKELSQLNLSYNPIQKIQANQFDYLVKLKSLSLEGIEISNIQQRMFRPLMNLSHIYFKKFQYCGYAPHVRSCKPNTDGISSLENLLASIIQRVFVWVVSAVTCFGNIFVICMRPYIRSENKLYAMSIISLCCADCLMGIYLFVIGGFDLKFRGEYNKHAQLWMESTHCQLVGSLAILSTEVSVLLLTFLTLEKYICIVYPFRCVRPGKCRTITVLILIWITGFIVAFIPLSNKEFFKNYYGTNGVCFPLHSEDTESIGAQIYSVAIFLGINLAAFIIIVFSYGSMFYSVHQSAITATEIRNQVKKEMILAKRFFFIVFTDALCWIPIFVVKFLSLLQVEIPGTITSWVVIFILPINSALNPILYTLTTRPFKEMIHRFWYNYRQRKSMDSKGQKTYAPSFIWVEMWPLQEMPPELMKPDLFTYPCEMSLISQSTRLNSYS
Assay: RXFP1 Hu cAMP (Test A)
Assay type: cell-based
Set-up: expressed in transfected cells; host or cells: Jump-In T-REx CHO-K1 cells (ThermoFisher), induced with 10 ng/ml doxycycline for 24 h
Settings: RXFP1 Hu cAMP
OBSERVED PROPERTY: Test A Sinf (%)

COMPOUND	Test A Sinf, %
COc1cc(C#N)c(O[C@H]2CC[C@@](C)(C(=O)O)CC2)cc1C(=O)N[C@@H]1[C@H]2CC[C@H](C2)[C@@H]1C(=O)NCC1(C(C)C)CC1 [Example 78]	120
COc1cc(F)c(O[C@H]2CC[C@@H](C(N)=O)CC2)cc1C(=O)N[C@@H]1[C@@H]2CC[C@@H](C2)[C@@H]1C(=O)Nc1cccc(S(F)(F)(F)(F)F)c1 [Example 511]	117
COc1cc(F)c(O[C@H]2CC[C@@](OC)(C(=O)O)CC2)cc1C(=O)N[C@@H]1[C@H]2CC[C@H](C2)[C@@H]1C(=O)NCC1(C)CCC1 [Example 506]	98
COc1cc(F)c(-c2ccc(CCC(=O)O)cn2)cc1C(=O)N[C@@H]1[C@H]2CC[C@H](C2)[C@@H]1C(=O)Nc1cccc(S(=O)(=O)C(F)(F)F)c1 [Example 242]	109
COc1cc(F)c(O[C@H]2CC[C@@H](C(=O)O)CC2)cc1C(=O)N[C@@H]1[C@H]2CC[C@H](C2)[C@@H]1C(=O)Nc1ccc(C#N)c(Br)c1 [Example 27]	88
COc1cc(F)c(O[C@H]2CC[C@@](C)(C(=O)O)CC2)cc1C(=O)N[C@@H]1[C@H]2CC[C@H](C2)[C@@H]1C(=O)N[C@@H](C)C(C)C [Example 42]	95
COc1cc(F)c(-c2ccc(C(=O)O)cc2F)cc1C(=O)N[C@H]1[C@@H](C(=O)Nc2cccc(S(=O)(=O)C(F)(F)F)c2)[C@@H]2C=C[C@H]1C2 (racemic) [Example 227]	102
COc1cc(C#N)c(O[C@H]2CC[C@@](C)(C(=O)O)CC2)cc1C(=O)Nc1cc(Cl)ccc1C(=O)NC(C)(C)C1CC1 [Example 165]	111
COc1cc(F)c(-c2cccc(C(=O)O)c2)cc1C(=O)N[C@@H]1CCC[C@@H]1C(=O)Nc1cccc(S(=O)(=O)C(F)(F)F)c1 [Example 317]	75
COc1cc(F)c(O[C@H]2CC[C@@](CO)(C(=O)O)CC2)cc1C(=O)N[C@@H]1[C@@H]2CC[C@@H](C2)[C@@H]1C(=O)Nc1cccc(S(=O)(=O)C(F)(F)F)c1 (racemic) [Example 366]	103
COc1cc(F)c(C2=CCC(C(=O)O)CC2)cc1C(=O)N[C@@H]1[C@H]2CC[C@H](C2)[C@@H]1C(=O)Nc1cccc(S(=O)(=O)C(F)(F)F)c1 (mixture of isomers) [Example 267]	93

---

molecular target: UniProt Q9HBX9; assay: RXFP1 Hu cAMP (Test A); format: cell-based; design: expressed in transfected cells; host or cells: Jump-In T-REx CHO-K1 cells (ThermoFisher), induced with 10 ng/ml doxycycline for 24 h; details: RXFP1 Hu cAMP; read-out: Test A EC50
OBSERVED PROPERTY: EC50

Completed entries (count: 2):
COMPOUND	EC50
COc1cc(F)c(O[C@H]2CC[C@@](C)(C(=O)O)CC2)cc1C(=O)N[C@@H]1CCC[C@@H]1C(=O)N[C@@H](C)C(C)C [Example 55]	> 8.4 µM
COc1cc(F)c(O[C@H]2CC[C@@H](C(=O)O)CC2)cc1C(=O)N[C@@H]1[C@H]2CC[C@H](C2)[C@@H]1C(=O)Nc1ccc(S(F)(F)(F)(F)F)cc1 [Example 183]	0.42 µM

Attention now turns to another entry.
Look up EC50 for this compound: COc1cc(F)c(O[C@H]2CC[C@@](C)(C(=O)O)CC2)cc1C(=O)N[C@@H]1CCC[C@@H]1C(=O)NC(C(C)C)C(C)C [Example 62] > 4.2 µM

---

Target: human RXFP1 (Homo sapiens, UniProt Q9HBX9)
Sequence (Q9HBX9 1-757): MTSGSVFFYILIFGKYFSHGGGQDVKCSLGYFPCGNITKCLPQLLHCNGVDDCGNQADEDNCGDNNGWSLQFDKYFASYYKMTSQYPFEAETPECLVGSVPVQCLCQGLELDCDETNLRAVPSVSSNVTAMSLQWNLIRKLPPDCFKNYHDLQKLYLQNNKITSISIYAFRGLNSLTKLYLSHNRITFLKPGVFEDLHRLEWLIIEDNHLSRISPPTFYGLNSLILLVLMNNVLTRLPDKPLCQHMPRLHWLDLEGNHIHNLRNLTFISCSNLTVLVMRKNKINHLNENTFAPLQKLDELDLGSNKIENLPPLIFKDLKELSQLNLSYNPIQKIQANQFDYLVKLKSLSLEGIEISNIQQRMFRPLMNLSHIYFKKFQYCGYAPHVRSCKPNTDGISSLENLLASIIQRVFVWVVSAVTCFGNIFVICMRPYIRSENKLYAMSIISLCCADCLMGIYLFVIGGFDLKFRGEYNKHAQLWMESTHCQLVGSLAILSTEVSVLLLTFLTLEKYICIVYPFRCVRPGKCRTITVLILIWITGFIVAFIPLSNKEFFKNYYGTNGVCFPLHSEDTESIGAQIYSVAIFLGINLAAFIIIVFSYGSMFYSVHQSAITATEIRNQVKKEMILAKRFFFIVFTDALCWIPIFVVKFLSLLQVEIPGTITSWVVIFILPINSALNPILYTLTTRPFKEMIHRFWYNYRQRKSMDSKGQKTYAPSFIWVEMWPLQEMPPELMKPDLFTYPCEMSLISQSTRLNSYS
Experiment: RXFP1 Hu cAMP (Test A)
Format: cell-based
Design: expressed in transfected cells; host or cells: Jump-In T-REx CHO-K1 cells (ThermoFisher), induced with 10 ng/ml doxycycline for 24 h
Conditions: RXFP1 Hu cAMP; read-out: Test A EC50
OBSERVED PROPERTY: EC50 (nM)

COMPOUND	UNIT	OBSERVED VALUE
COc1cc(C#N)c(O[C@H]2CC[C@@](C)(C(=O)O)CC2)cc1C(=O)NC1C2C=CC(CC2)C1C(=O)NCC1(C)CCC1 (single isomer, unassigned)	nM	20

[1] COc1cc(F)c(-c2cnc([C@@H]3C[C@H]3C(=O)O)cn2)cc1C(=O)N[C@@H]1[C@H]2CC[C@H](C2)[C@@H]1C(=O)Nc1cccc(S(=O)(=O)C(F)(F)F)c1 (single isomer, unassigned) [Example 263]
[2] COc1cc(C#N)c(O[C@H]2CC[C@@](C)(C(=O)O)CC2)cc1C(=O)NC1C2CCC(CC2)C1C(=O)NCC1(C)CCC1 (single isomer, unassigned)
[3] COc1cc(F)c(O[C@H]2CC[C@@H](C(=O)O)CC2)cc1C(=O)N[C@@H]1[C@H]2CC[C@H](C2)[C@@H]1C(=O)Nc1cc(F)cc(S(F)(F)(F)(F)F)c1
Arrange the 3 compounds from largest to smallest EC50. Reply with the labels, ordered as the question asks. 2, 1, 3

---

assay: Solubility (Test F); type: physicochemical; settings: arithmetic mean if run multiple times
OBSERVED PROPERTY: solubility (µM)

SMILES DATA	solubility / µM
COc1cc(C#N)c(O[C@H]2CC[C@@](C)(C(=O)O)CC2)cc1C(=O)N[C@@H]1[C@H]2CC[C@H](C2)[C@@H]1C(=O)N[C@H]1C[C@@H](C)C1	850

[a] CCC(CC)CNC(=O)[C@H]1CCC[C@H]1NC(=O)c1cc(O[C@H]2CC[C@@](C)(C(=O)O)CC2)c(F)cc1OC
[b] COc1cc(C#N)c(O[C@H]2CC[C@@](C)(C(=O)O)CC2)cc1C(=O)N[C@@H]1[C@H]2CC[C@H](C2)[C@@H]1C(=O)NCC1CCCCCC1
Which value of solubility is greater, the one for a or the one for b ? Field: selected label. Fill in the label of the entry you choose. a
(a: 960 µM, b: 330 µM)

Sourced from patent US11667602B2
